// data source = the Bradley open melting point set (2014)

Documented melting point across a set of compounds
MEASUREMENT TYPE: melting point

CC1(C)[C@@H]2CC[C@@]1(C)[C@@H](O)C2    207 °C
ON=Cc1ccc(O)cc1 [p-Hydroxybenzaldehyde oxime]    112 °C
CN(C)c1ccc(C=O)cc1 [4-dimethylaminobenzaldehyde]    74.5 °C
O=C(CC(=O)C(F)(F)F)c1cccs1    43 °C
Cc1[nH]n(-c2ccccc2)c(=O)c1C(=O)c1ccccc1    91 °C
OCC(O)c1ccccc1 (configuration not stated)    68 °C
c1ccc(C(CCN2CCCCC2)c2ccccc2)cc1    41 °C
Cl/C=C/Cl [(E)-1,2-Dichloroethene]    -50 °C
COc1ccc(Cl)cc1I    46 °C
O=C(Cc1ccc(-c2ccccc2)cc1)Nc1ccccn1 [difenpiramide]    122 °C
Cc1cccc(N)c1    -30 °C
COc1ccc(C(=O)Cl)cc1 [4-Methoxybenzoyl chloride]    22 °C
CCCCCCCCCCC(C)=O    21 °C
Cc1cc(CCN2CCN(c3cccc(Cl)c3)CC2)n[nH]1 [mepiprazole]    106 °C
O=C(O)c1cc(F)cc(C(F)(F)F)c1    104 °C
Cc1cc(N)ccc1F    34 °C
CCNc1nc(NC(C)(C)C)nc(SC)n1    104 °C
O=C1CCC(C(=O)O)=NN1 [1,4,5,6-tetrahydro-6-oxopyridazine-3-carboxylic acid]    197 °C
C=Cc1ccccc1O    29 °C
CN[C@@H](C)[C@H](O)c1ccccc1 [(1R,2S)-2-(Methylamino)-1-phenylpropan-1-ol]    36 °C
Oc1cc(Cl)ccc1Oc1ccc(Cl)cc1Cl    57 °C
O=Cc1ccc(B(O)O)cc1Cl    212 °C
CCOC(=O)c1ccc(O)cc1 [ethylparaben]    116 °C
C/C=C/c1ccc(O)c(OC)c1 [isoeugenol, cis trans]    -10 °C
CC1CCc2cc(F)cc3c(=O)c(C(=O)O)cn1c23 (configuration not stated)    253 °C
CCc1ccc(NC(=S)NN)cc1 [4-(4-ethylphenyl)-3-thiosemicarbazide]    130 °C
FC1(F)C2=CC=CC=C1C=CC=C2 [11,11-Difluoro-1,6-methano[10]annulene]    119 °C
Cc1cc(O)ccc1O    129 °C
CCCCCCCCCCCCCCCCCC(=O)OC [methyl stearate]    40 °C
C=C(C)C(=O)OCCCC [Butyl methacrylate]    -50 °C
O=C1c2ccccc2Cc2ccccc21    157 °C
NNS(=O)(=O)c1ccccc1 [benzenesulfonyl hydrazide]    103 °C
C=CCN1C(=O)C(CC(C)C)NC1=S (configuration not stated)    210 °C
COc1ccc([N+](=O)[O-])cc1N    118 °C
O=C(O)c1ccc(C(F)(F)F)cc1    221 °C
c1ccsc1    -38 °C
CC(C)(C)c1ccc(C(=O)O)cc1    166 °C
O=C(O)c1ccccc1-c1ccccc1    115 °C
CC(=O)Nc1ccccc1C [2'-methylacetanilide]    111 °C
O=C1C[C@@H]2OCC=C3CN4CC[C@]56c7ccccc7N1[C@H]5[C@H]2[C@H]3C[C@H]46    280 °C
c1ccc(-c2ccc(-c3ccccc3)cc2)cc1 [1,1':4',1''-Terphenyl]    213 °C
C=C(C)CC1(CC)C(=O)NC(=S)NC1=O    160 °C
